Positions of bridges follow the written chain, without caps; N, C: chain ends. Residues, ends and D or L forms follow the SMILES beside them.
As a worked illustration, we turn to pIC50 data collected for Neuronal acetylcholine receptor subunit alpha-7 (Rattus norvegicus, UniProt Q05941).
Interpret pIC50 as the negative base-10 log of the concentration measured in mol/L.

compound	target_of_assay	recorded_value
CC(C)C[C@@H]1NC(=O)[C@H](C)NC(=O)[C@@H]2CSSC[C@H](NC(=O)CN)C(=O)N[C@@H](CSSC[C@@H](C(=O)O)NC(=O)[C@H](CC(=O)O)NC(=O)[C@@H]3CCCN3C(=O)[C@H](CC(N)=O)NC(=O)[C@H](CC(N)=O)NC1=O)C(=O)N[C@@H](CO)C(=O)N[C@@H](CC(C)C)C(=O)N1CCC[C@H]1C(=O)N1CCC[C@H]1C(=O)N2 (H-GCCSLPPCALNNPDC-OH; disulfide 2-8, 3-15)	Neuronal acetylcholine receptor subunit alpha-7 (Rattus norvegicus, UniProt Q05941)	6.94
CC(C)C[C@@H]1NC(=O)[C@H](C)NC(=O)[C@@H]2CSSC[C@H](NC(=O)CN)C(=O)N[C@@H](CSSC[C@@H](C(=O)O)NC(=O)[C@@H]3CCCN3C(=O)[C@H](CC(N)=O)NC(=O)[C@H](CC(N)=O)NC1=O)C(=O)N[C@@H](CO)C(=O)N[C@@H](CC(C)C)C(=O)N1CCC[C@H]1C(=O)N1CCC[C@H]1C(=O)N2 (H-GCCSLPPCALNNPC-OH; disulfide 2-8, 3-14)	Neuronal acetylcholine receptor subunit alpha-7 (Rattus norvegicus, UniProt Q05941)	7.10
CC(C)C[C@@H]1NC(=O)[C@H](C)NC(=O)[C@@H]2CSSC[C@H](NC(=O)CN)C(=O)N[C@@H](CSSC[C@@H](C(=O)O)NC(=O)[C@H](CC(N)=O)NC(=O)[C@H](CC(N)=O)NC1=O)C(=O)N[C@@H](CO)C(=O)N[C@@H](CC(C)C)C(=O)N1CCC[C@H]1C(=O)N1CCC[C@H]1C(=O)N2 (H-GCCSLPPCALNNC-OH; disulfide 2-8, 3-13)	Neuronal acetylcholine receptor subunit alpha-7 (Rattus norvegicus, UniProt Q05941)	6.68

Alright, here's another compound for you.
Qu. Observed pIC50 on Neuronal acetylcholine receptor subunit alpha-7 (Rattus norvegicus, UniProt Q05941) for CC(C)C[C@@H]1NC(=O)[C@H](CO)NC(=O)[C@@H]2CSSC[C@@H](C(=O)O)NC(=O)[C@H](Cc3ccc(O)cc3)NC(=O)[C@H](CC(=O)O)NC(=O)[C@@H]3CCCN3C(=O)[C@H](CC(N)=O)NC(=O)[C@H](CC(N)=O)NC(=O)[C@H](C)NC(=O)[C@H](C)NC(=O)[C@H](CSSC[C@H](NC(=O)CN)C(=O)N2)NC(=O)[C@@H]2CCCN2C(=O)[C@@H]2CCCN2C1=O (H-GCCSLPPCAANNPDYC-OH; disulfide 2-8, 3-16) , please.
Sequence (Q05941 whole entry): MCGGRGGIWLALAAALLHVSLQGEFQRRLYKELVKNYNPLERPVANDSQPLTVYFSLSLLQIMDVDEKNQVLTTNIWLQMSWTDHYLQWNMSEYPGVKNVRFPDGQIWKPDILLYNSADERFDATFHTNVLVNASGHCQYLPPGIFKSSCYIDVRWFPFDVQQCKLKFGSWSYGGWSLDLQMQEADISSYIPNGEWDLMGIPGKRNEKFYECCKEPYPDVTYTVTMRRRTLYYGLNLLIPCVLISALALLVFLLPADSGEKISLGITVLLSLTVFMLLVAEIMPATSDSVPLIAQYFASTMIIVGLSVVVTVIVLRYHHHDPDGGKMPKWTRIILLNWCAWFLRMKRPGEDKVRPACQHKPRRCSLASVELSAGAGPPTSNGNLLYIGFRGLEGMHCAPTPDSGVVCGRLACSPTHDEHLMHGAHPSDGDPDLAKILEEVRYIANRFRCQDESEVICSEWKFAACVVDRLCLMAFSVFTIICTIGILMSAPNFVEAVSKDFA
Ans. 6.60

Origin of measurements: ChEMBL document CHEMBL1140075
